Reported growth inhibition values for the following compounds.
experiment: NCI Yeast Anticancer Drug Screen. Data for the cln2 rad14 strain (AID 165);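 also: 0% = growth equal to vehicle treated cultures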; details: S. cerevisiae cln2 rad14 strain, at 50.0 µM, active compounds read high
This is part of a sample that, as a whole, favours compounds with a hit. Of some 79,000 tested, about 15% had one in any assay.
Give the value in % but do not write % after it.

Below are worked cases with known answers.
1) O=S(=O)(c1ccccc1)c1ccc(CI)cc1; 17.4
2) CCCCCCCCCCOC1C(C(C)OCCCN(C)C)OC2OC3(CCCCC3)OC21 (stereo not given); 16.1
3) Cc1cc2c(C(C)C)c(O)c(O)c(C=Nc3ccc(N=Nc4ccccc4)cc3)c2c(O)c1-c1c(C)cc2c(C(C)C)c(O)c(O)c(C=Nc3ccc(N=Nc4ccccc4)cc3)c2c1O; -21.8
4) S=c1[nH]nc(SCc2ccc(Cl)cc2Cl)c2[nH]cnc12; -32.4
5) COCCN(CCOC)C(=O)Nc1cccc(Cl)c1; 8.35
6) CC(C)=CC1C(CO)C1(C)C (stereo not given); -16.6

Problem: Looking for the measured growth inhibition of `NCCSSCCCCSSCCN` , can you help?
Solution: -43.2

Problem: Likewise for `CCN(CC)C(=O)CN` ?
Solution: -3.05

Problem: Likewise for COC(=O)C(C)(NC(=O)C(CC(=O)OC(C)(C)C)NC(=O)OC(C)(C)C)c1ccccc1 (stereo not given) ?
Solution: 35.8

Problem: Likewise for CCC(CCC(=O)O)C1CCCCC1 (stereo not given) ?
Solution: 45.9

Problem: Likewise for `CC(=O)c1cccc(NC(=O)Nc2ccc(Nc3ccccc3)cc2)c1` ?
Solution: 2.6

Problem: Likewise for `Oc1ccccc1-c1nc2ccccc2s1` ?
Solution: -2.7

Problem: Likewise for `COc1ccccc1Nc1nc2c([nH]1)c(=O)n(C)c(=O)n2C` ?
Solution: -32.8

Problem: Likewise for `CCN(CC)CCN(C(=Nc1ccccc1)N1CCOCC1)c1ccccc1` ?
Solution: -3.8

Problem: Likewise for `CCCCCCCCCCCCN=Cc1cc(Cc2ccc(O)c(C=NCCCCCCCCCCCC)c2)ccc1O` ?
Solution: 84.2

Problem: Likewise for `Nc1nc2[nH]c(=O)c(C(=O)O)nc2c(=O)[nH]1` ?
Solution: -16.6

Problem: Likewise for `CCCCCCCCCCCCCCCCCCCCCCCCCCCCCCCCCCCCSC(=N)N` ?
Solution: -7.05

Problem: Likewise for `OCC1CCCC1` ?
Solution: -2.95

Problem: Likewise for `N#CC1(N)c2ccccc2-c2ccccc21` ?
Solution: 9.65

Problem: Likewise for `C[C@@]1(NC(=O)Cc2ccccc2)C(=O)N2CCS[C@@]21c1ccccc1` ?
Solution: -3.2

Problem: Likewise for N#CC(C(=O)C(N)=O)c1nc2ccccc2s1 (stereo not given) ?
Solution: 5.8

Problem: Likewise for `O=C(O)C(CCOc1ccccc1)CCOc1ccccc1` ?
Solution: -10.4

Problem: Likewise for CC1CC(NC(=O)/C=C/C(=O)O)CC(C)(C)C1 (stereo not given) ?
Solution: -2.95

Problem: Likewise for `CSc1nc(-c2ccc(C)cc2)c(C#N)c(=O)[nH]1` ?
Solution: 24.2

Problem: Likewise for CCC(=O)C(CC)c1ccc(OC)cc1OC (stereo not given) ?
Solution: 3.85

* * *

Reported growth inhibition values for the following compounds.
test: NCI Yeast Anticancer Drug Screen. Data for the rad50 strain (AID 155);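 also: 0% = growth of vehicle-only cultures of the same strain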; details: S. cerevisiae rad50 strain growth inhibition; at 50.0 µM; active compounds read high
This is part of a sample that, as a whole, favours compounds with a hit. Of some 79,000 tested, about 15% had one in any assay. Calls of active or inactive are those of the source. Cut-off read from the data, not from the text of the source: active = growth inhibition above about 70%; inactive = the rest.

Problem: Looking for the measured growth inhibition of NNC(=O)N/N=C1\C(=O)N(c2ccc(Cl)c(Cl)c2)C(=O)C(=O)C1c1nc2ccccc2s1 (stereo not drawn) , can you help?
Solution: 41.4% (inactive)

Problem: Likewise for CCOC(=O)C(Cc1ccc(N=NN(C)C)cc1)NC(=O)CC1c2ccccc2-c2ccccc21 (stereo not drawn) ?
Solution: 13.8% (inactive)

Problem: Likewise for `Nc1ccc(-c2nc3ccccc3[nH]2)cc1` ?
Solution: -2.55% (inactive)
